- assay notes: PK study in rabbits, ocular tissue concentrations (LC-MS/MS)
- Assay type: in vivo, New Zealand White rabbits
- condition details: male, New Zealand White, rabbit, conjunctiva, topical; persisted up to 6 hours; 40 μL (50 mg/mL) GW559090A; read-out: Conjunctival tissue concentration
readout: concentration at 6 h

Record summary for Cc1ccccc1OCC(=O)N[C@@H](CC(C)C)C(=O)N[C@@H](Cc1ccc(OC(=O)N2CCC(C(N)=O)CC2)cc1)C(=O)O [GW559090] : reported concentration at 6 h = ~358 ng/mL

---

- System: RPMI 8866 binding to VCAM-1
- assay notes: VCAM cell adhesion assay, RPMI 8866 cells
- Type: cell-based
- condition details: Homo sapiens; RPMI 8866 cells to VCAM-1; read-out: Inhibition of cell adhesion (IC50)
readout: IC50 (nM)
Answers are plain numbers, in nM.

Record summary for Cc1ccccc1OCC(=O)N[C@@H](CC(C)C)C(=O)N[C@@H](Cc1ccc(OC(=O)N2CCC(C(N)=O)CC2)cc1)C(=O)O : reported IC50 = 4.81
